Items are presented alongside their recorded IC50.
# Assay Target: angiotensin converting enzyme (ACE) (Oryctolagus cuniculus, UniProt P12822)
# Sequence (P12822 34-1310): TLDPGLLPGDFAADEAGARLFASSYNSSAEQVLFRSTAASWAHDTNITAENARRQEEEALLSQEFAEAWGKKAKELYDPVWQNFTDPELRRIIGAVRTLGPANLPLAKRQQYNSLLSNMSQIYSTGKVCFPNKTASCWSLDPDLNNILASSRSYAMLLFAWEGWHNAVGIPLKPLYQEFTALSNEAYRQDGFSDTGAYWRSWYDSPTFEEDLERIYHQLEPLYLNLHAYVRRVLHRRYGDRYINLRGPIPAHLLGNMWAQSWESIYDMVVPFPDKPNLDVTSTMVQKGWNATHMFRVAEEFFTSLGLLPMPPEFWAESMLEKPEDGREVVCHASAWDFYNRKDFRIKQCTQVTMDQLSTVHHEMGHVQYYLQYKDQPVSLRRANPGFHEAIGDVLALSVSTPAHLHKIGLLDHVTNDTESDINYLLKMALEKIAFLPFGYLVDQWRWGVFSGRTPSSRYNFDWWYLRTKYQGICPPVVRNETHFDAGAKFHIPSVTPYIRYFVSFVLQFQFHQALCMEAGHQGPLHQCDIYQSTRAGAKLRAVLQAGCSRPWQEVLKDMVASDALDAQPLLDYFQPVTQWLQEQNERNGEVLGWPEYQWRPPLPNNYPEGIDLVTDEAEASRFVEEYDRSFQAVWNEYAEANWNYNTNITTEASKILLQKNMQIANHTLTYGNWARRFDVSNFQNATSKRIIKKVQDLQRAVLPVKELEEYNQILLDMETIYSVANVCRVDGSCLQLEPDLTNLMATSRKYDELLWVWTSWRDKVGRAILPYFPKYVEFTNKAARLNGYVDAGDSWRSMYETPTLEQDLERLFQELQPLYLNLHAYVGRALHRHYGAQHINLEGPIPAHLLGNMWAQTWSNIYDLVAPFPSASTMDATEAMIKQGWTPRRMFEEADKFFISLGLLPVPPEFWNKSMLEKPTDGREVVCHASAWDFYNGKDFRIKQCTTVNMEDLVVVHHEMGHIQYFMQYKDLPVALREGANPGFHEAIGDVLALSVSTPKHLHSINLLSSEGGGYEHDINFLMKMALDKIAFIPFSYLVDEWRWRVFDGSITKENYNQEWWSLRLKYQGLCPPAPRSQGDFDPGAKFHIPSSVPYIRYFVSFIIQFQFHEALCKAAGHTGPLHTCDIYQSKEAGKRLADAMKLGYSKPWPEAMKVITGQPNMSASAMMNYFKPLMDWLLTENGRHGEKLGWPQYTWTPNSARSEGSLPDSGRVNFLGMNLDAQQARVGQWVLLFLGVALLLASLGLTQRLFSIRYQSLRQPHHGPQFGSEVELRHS
# Protocol Description: ACE inhibiting activity (method of Cushman and Cheung, Hip-His-Leu substrate)
# Conditions Used: read-out: IC50 (μM), ACE inhibiting activity of synthesized peptides; chemically synthesized peptides; measured in the same way as in Example 1
Residues, ends and D or L forms follow the SMILES beside them.
Measured Property: IC50 (µM)

1) CC(C)C[C@H](NC(=O)[C@@H](N)Cc1ccccc1)C(=O)N[C@H](C(=O)N1CCC[C@H]1C(=O)N1CCC[C@H]1C(=O)O)C(C)C [Phe--Leu--Val--Pro--Pro, Phe-Leu-Val-Pro-Pro] (H-FLVPP-OH)
12
2) CC(C)C[C@H](N)C(=O)N[C@H](C(=O)N1CCC[C@H]1C(=O)N1CCC[C@H]1C(=O)O)C(C)C [Leu--Val--Pro--Pro, Leu-Val-Pro-Pro] (H-LVPP-OH)
125
3) CC(C)C[C@H](N)C(=O)N[C@H](C(=O)N[C@@H](CCC(N)=O)C(=O)N[C@H](C(=O)N1CCC[C@H]1C(=O)N[C@H](C(=O)N[C@H](C(=O)N[C@H](C(=O)N1CCC[C@H]1C(=O)N1CCC[C@H]1C(=O)O)C(C)C)C(C)C)C(C)C)[C@@H](C)O)[C@@H](C)O (H-LTQTPVVVPP-OH)
160
4) CC(C)[C@H](NC(=O)[C@@H]1CCCN1)C(=O)N1CCC[C@H]1C(=O)N1CCC[C@H]1C(=O)O [Pro--Val--Pro--Pro, Pro-Val-Pro-Pro] (H-PVPP-OH)
181
5) CC(C)[C@H](NC(=O)[C@@H]1CCCN1C(=O)[C@H](C)N)C(=O)N1CCC[C@H]1C(=O)N1CCC[C@H]1C(=O)O [Ala--Pro--Val--Pro--Pro, Ala-Pro-Val-Pro-Pro] (H-APVPP-OH)
627
6) CC(C)[C@H](N)C(=O)N[C@H](C(=O)N1CCC[C@H]1C(=O)N1CCC[C@H]1C(=O)O)C(C)C [Val--Val--Pro--Pro, Val-Val-Pro-Pro] (H-VVPP-OH)
285
7) CC(C)[C@H](N)C(=O)N[C@H](C(=O)N[C@H](C(=O)N1CCC[C@H]1C(=O)N1CCC[C@H]1C(=O)O)C(C)C)C(C)C [Val--Val--Val--Pro--Pro, Val-Val-Val-Pro-Pro] (H-VVVPP-OH)
873
8) CC(C)[C@H](NC(=O)[C@@H]1CCCN1)C(=O)N[C@H](C(=O)N[C@H](C(=O)N1CCC[C@H]1C(=O)N1CCC[C@H]1C(=O)O)C(C)C)C(C)C [Pro--Val--Val--Val--Pro--Pro, Pro-Val-Val-Val-Pro-Pro] (H-PVVVPP-OH)
117
